Biological target: Bcl-xL, Q07817
Sequence (Q07817 1-209): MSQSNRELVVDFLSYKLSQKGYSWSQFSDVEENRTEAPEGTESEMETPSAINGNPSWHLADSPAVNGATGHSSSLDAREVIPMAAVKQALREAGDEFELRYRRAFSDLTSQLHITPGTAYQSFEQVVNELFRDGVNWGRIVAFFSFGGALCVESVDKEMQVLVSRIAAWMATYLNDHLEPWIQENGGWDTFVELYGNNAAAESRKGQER
Assay: peptide SPOT array, c-Myc-tagged receptor at 1 uM or 100 nM, anti-c-Myc-Cy3
Measured SPOT signal as a fraction of Bim BH3's signal on the same receptor and array, listed per entry.
Form field (numeric): enter value without unit.

Would you please look over these solved cases?
>>> numeric_value("DNHKKKTVKMLEYLLKDVLHGVFNYL [CASP5]")
0.24
>>> numeric_value("RAKASSLSEELKHFLDGLETDGTLQK [DSN1]")
0.26
>>> numeric_value("TSRINEVQVNLSLLLDDLLLPAQSTL [SPHKAP]")
0.05

Next, consider the following binder.
Asked: Report SPOT signal as a fraction of Bim BH3's signal on the same receptor and array for GYPFNDVCQWFIDRLDLIFVVFDPTK [SRL] please.
Given back: 0.06
